target.entity: Aminopeptidase N (Sus scrofa, UniProt P15145)
Sequence (P15145 whole entry): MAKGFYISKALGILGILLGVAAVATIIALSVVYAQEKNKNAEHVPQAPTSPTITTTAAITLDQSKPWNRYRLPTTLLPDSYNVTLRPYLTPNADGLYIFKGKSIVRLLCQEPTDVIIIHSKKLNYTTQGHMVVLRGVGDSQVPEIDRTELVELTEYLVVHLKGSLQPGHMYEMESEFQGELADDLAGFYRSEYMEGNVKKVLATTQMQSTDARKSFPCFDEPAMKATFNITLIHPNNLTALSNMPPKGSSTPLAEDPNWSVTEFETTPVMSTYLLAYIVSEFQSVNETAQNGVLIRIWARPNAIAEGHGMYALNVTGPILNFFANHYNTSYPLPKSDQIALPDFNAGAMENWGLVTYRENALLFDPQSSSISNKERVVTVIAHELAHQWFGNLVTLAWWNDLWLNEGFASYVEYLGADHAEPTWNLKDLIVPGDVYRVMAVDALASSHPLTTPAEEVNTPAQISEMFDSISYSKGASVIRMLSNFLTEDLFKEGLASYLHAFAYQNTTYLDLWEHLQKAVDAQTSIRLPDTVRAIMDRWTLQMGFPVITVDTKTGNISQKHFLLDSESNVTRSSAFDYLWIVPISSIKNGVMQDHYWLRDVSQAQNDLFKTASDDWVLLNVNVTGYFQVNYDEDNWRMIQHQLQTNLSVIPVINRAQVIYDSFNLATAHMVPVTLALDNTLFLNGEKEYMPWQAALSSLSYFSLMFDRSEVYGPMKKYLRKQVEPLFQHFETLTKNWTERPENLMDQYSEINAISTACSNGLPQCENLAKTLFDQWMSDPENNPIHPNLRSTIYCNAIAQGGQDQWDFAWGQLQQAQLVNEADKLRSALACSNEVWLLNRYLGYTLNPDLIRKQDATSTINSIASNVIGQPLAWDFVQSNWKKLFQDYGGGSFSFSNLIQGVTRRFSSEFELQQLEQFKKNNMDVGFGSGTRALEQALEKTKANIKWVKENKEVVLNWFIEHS
assay.remarks: Inhibition of microsomal […] aminopeptidase in pig kidney
Exercise: state measured IC50 for each of the molecules provided.
Give bare numbers, in nM.

>>> value_measured("CC(C)CC(C(=O)NO)C(=O)NCCc1ccccc1 (centres undefined)")
984
>>> value_measured("Cn1c(CC(C(=O)NO)C(=O)NCc2ccccc2)nc2ccccc21 (centres undefined)")
718

Moving on to the next molecule.
Noted IC50 for CC(C)CC(C(=O)NO)C(=O)NCc1cccc(Oc2ccccc2)c1 (centres undefined) , tested on Aminopeptidase N (Sus scrofa, UniProt P15145): 443

The measured values listed here are drawn from ChEMBL document CHEMBL1144529.
